Attribution: the supplement of paper PMC9170038

System: MS2 coat protein
Assay: apparent KD of MS2 coat protein; designed switch direction (-1 OFF switch, 1 ON switch): -1; higher = weaker reporter binding
Settings: input ligand: FMN 200 uM
Kindly supply the reported apparent KD of MS2 coat protein values for the records listed here.
Expressed in nM, but write only the number.

Measured apparent KD of MS2 coat protein, GUCCGACAUGAGGAUCACCCAUGUGAGGAUAUGCGAUUAGCUGCUAGGUAGUUAGUAUGUAGAAGGUGCAUGAA [EX1 #75] (Eterna round: R97, puzzle: Exclusion 1) : 18.8

Measured apparent KD of MS2 coat protein, UUUGUUUGGUAGGAUAUCAACUAAGAGAGUGGCUGAGAAGGACCAACAUGAGGAUCACCCAUGUCGGUUCCGUU [EX6 C.15] (Eterna round: R97, puzzle: Exclusion 6) : 16.2

Measured apparent KD of MS2 coat protein, GCUAGGCAUGUCAGGAUAUGCAGAUCCUUGGAUCUGCAGAAGGGACAUGAGGAUCACCCAUGUGCCAACCUAGC [Mat - Exclusion 4 - JL Mod - D11] (Eterna round: R97, puzzle: Brourd's mod of Exclusion 4) : 609

###

Test system: MS2 coat protein
Experiment: apparent KD of MS2 coat protein; designed switch direction (-1 OFF switch, 1 ON switch): -1; higher = weaker reporter binding
Conditions: input ligand: FMN 200 uM
Rule: Met for apparent KD of MS2 coat protein not less than 100 nM, Not met for anything less.

Request: Is apparent KD of MS2 coat protein for AGUGUGAGGCAGGAUAUGCUAUAUGUAAGUAAUGCAGAAGGGUCUACAUGAGGAUCACCCAUGUGUGCGGUUGA [Ex6 #9] (Eterna round: R97, puzzle: Exclusion 6) at or above 100 nM?
Result: Met

Request: Is apparent KD of MS2 coat protein for GUCCUGUGGCAGGAUAUGAAAACGUAGCAACGGUCAGAAGGGCCAACAUGAGGAUCACCCAUGUACCCGUAUGG [Eternabot (L1) Solution 62] (Eterna round: R97, puzzle: Exclusion 6) at or above 100 nM?
Result: Not met

Request: Is apparent KD of MS2 coat protein for AAGUCACAGGGAGGAUAUGUGAAAGGAAGUGUAACAGAAGGCCCAACGUAGGGCGAGACAUGAGGAUCACCCAUGUAUAAAAGA [PowerStrip EXNG 1.16] (Eterna round: R96, puzzle: Exclusion NG 1) at or above 100 nM?
Result: Not met

Request: Is apparent KD of MS2 coat protein for UUAAAUCAUGUAGGAUAUGCGUGGCGAAGCUAUGCAGAAGGACAUGAGGAUCACCCAUGUUCAUCCGUCUGCGUACAGAUGGAA [JL Eng1 1.08 mod 1] (Eterna round: R96, puzzle: Exclusion NG 1) at or above 100 nM?
Result: Met

###

Kindly supply the reported apparent KD of MS2 coat protein values for the records listed here.
System: MS2 coat protein
Assay: apparent KD of MS2 coat protein; designed switch direction (-1 OFF switch, 1 ON switch): -1; higher = weaker reporter binding
Details: input ligand: FMN 200 uM
Expressed in nM, but write only the number.

Summary: UUAAUUAAUUGACUGCAAGAUCAACAUGAGGAUCACCCAUGUGAGGAUAUCAGCUCGUUUAGAGCUGAGAAGGCACAAGCAGUC [ExNG3/16-A2] (Eterna round: R96, puzzle: Exclusion NG 3) , MS2 coat protein, apparent KD of MS2 coat protein = 53.6

Summary: CGGGACCGAGGAUAUACAUGUGGACUCGAGUUGACGUUGGGACAUGAGGAUCACCCAUGUAGAAGGCGGAUCUU [Eternabot (L2) Solution 57] (Eterna round: R97, puzzle: Exclusion 2) , MS2 coat protein, apparent KD of MS2 coat protein = 270

Summary: UAUUAGUAAGGAUAUCUCUGCAUGGACGAAAGUCCAUGCAGAGAGAAGGUACAUGAGGAUCACCCAUGUUCAUU [Mod of Fisker 17 - Jieux - Exclusion 4] (Eterna round: R97, puzzle: Exclusion 4) , MS2 coat protein, apparent KD of MS2 coat protein = 17.1

###

Tested on: MS2 coat protein
Test: apparent KD of MS2 coat protein; designed switch direction (-1 OFF switch, 1 ON switch): -1; higher = weaker reporter binding
Details: Eterna round: R95; input ligand: microRNA oligo, concentration not stated
ASSAY_READOUT: apparent KD of MS2 coat protein
# number then unit; no other words

Measured apparent KD of MS2 coat protein, CUUUAGUGAGGAUAUCAGUAGUAAUACAAUAGUAUUAUUACUGAGAAGGCACAUGAGGAUCACCCAUGUUCCUC [Mat - Exclusion 4 - Mod of Omei - D81] (puzzle: Exclusion 4) : 0.0269 µM

Measured apparent KD of MS2 coat protein, GAAAAGGUAGGAUAUACGAAAAAAAAGGGUACAAAAAAAACACAUGAGGAUCACCCAUGUAGAAGGACCAAAAG [salish99_ex2_r3_063] (puzzle: Exclusion 2) : 0.0256 µM

Measured apparent KD of MS2 coat protein, UUUAAUUUUUUUUUUUUACAAGCUUUUUGCUCGUCUUAUACAUGAGGAUCACCCAUGUGAAUGGGAGGUAAAUUAUC [JMF 73] (puzzle: Sensor v3, turn-off variant 2) : 0.192 µM

Measured apparent KD of MS2 coat protein, GAUGAGGUAGGAUAUACGAUAAUAUAGGGUAGAUAUAUAACACAUGAGGAUCACCCAUGUAGAAGGACCAGGAG [Mat - Exclusion 2 - Mod of my Tesla design - D65] (puzzle: Exclusion 2) : 0.0281 µM

Measured apparent KD of MS2 coat protein, CCGGAAAUAGAGGAUAUCGUAUCGGAUACGAUACGAGAAGGCUAUACAUGAGGAUCACCCAUGUGUCCUACCGG [Fiskers Ex 6 - 56] (puzzle: Exclusion 6) : 0.0161 µM

###

Test system: MS2 coat protein
Test: apparent KD of MS2 coat protein, switch ON state; designed switch direction (-1 OFF switch, 1 ON switch): -1; higher = weaker reporter binding
Conditions: FMN input: 0 or 200 uM; Eterna round: R93 (includes R88 designs)
Rule: label 1 for apparent KD of MS2 coat protein not less than 30 nM, label 0 for anything less.

Request: Is apparent KD of MS2 coat protein for AAAAAAGGAGGAUAUACGUACAUGUCGAAAGACGUGAAGGGACAUGAGGAUCACCCAUGUAGAAGGCUUAAAAA [Mat - Exclusion 2 - JL mod - D70] at or above 30 nM?
Result: label 1

Request: Is apparent KD of MS2 coat protein for CUCAAGUAAGGAUAUCGAAGAAAAGAAGAGAAAGAAAAGAACGAGAAGGUACAUGAGGAUCACCCAUGUAAGAA [EteRNA is fun!] at or above 30 nM?
Result: label 1

Request: Is apparent KD of MS2 coat protein for AAAAAGUGAGGAUAUACGUUGAAAAAAAAAAAAAAAAAGCGGUAGAAGGCACAUGAGGAUCACCCAUGUAAAAA [Ex4 Malc#4] at or above 30 nM?
Result: label 1

Request: Is apparent KD of MS2 coat protein for GAAACACAUGAGGAUCACCCAUGUCAGGAUAUUCAAACAAAAACAAAACAAAACAAACGAAGAAGGGACAAAAG [Mat - Same state - Mayanna Mod - D102] at or above 30 nM?
Result: label 0

Request: Is apparent KD of MS2 coat protein for AAAAAACAUGAGGAUCACCCAUGUCAGGAUAUCCGGUUCAAAAAAAAAAAAAGGCGUUGGAGAAGGGACAUUCC [Chica Displaced 10 - Jieux - Exclusion 1] at or above 30 nM?
Result: label 0

Request: Is apparent KD of MS2 coat protein for AAGAAGCAAGGAUAUACAUGAAAGAAAGAAAAGAAAAGAAAACAUGAGGAUCACCCAUGUAGAAGGUGCUAGAA [EteRNA is fun!] at or above 30 nM?
Result: label 1

Request: Is apparent KD of MS2 coat protein for AAGUACGAAGGAUAUACAUGGAUAUACAUUCAUGUGGACCUACAUGAGGAUCACCCAUGUAGAAGGUCGUAAUA [Mat - Same state - Mayanna Mod - D145] at or above 30 nM?
Result: label 0

Request: Is apparent KD of MS2 coat protein for GGGUCACAUGAGGAUCACCCAUGUAAGGAUAUGCUAGGGAUGGAAGCCAGGCCGCAACGCAGAAGGUACUAAAG [Janelle Amethyst 18 Mod 14 - Jieux - Exclusion 1] at or above 30 nM?
Result: label 1

Request: Is apparent KD of MS2 coat protein for AAGAACGGAGGAUAUACAAAAUAAAAGAAAAGAAAGAAAGAACAUGAGGAUCACCCAUGUAGAAGGCCGAAGAA [Sehetepibre Sewesekhtawy] at or above 30 nM?
Result: label 0

Request: Is apparent KD of MS2 coat protein for AGAAAGUCAGGAUAUGCGAAGGCGUCUGAUAGACGAGGCUAGCAGAAGGGACAUGAGGAUCACCCAUGUGAAAA [Mat - Exclusion 4 - Eli mod - D86] at or above 30 nM?
Result: label 1
